- Test system: viruses resistant to both reverse transcriptase and protease inhibitors
- assay_name: p24 production susceptibility test, summary for resistant viruses
- Assay type: cell-based, HIV-1
- condition_details: Human immunodeficiency virus 1, range
- Procedure: In order to assay in vitro the susceptibility to chloroquine and hydroxychloroquine of the viral strains, it was used the protocol of the ACTG which is characterised by the measure, of the production of antigen p24 in strongly infected cells. The susceptibility of the viral strains to chemotherapics was determined in cell cultures, prepared in 96 wells microplates, using, for the infection, 0.1 MOI. […]
Provide the reported EC50 of each item.

Challenge: Requested read-out EC50, target or system viruses resistant to both reverse transcriptase and protease inhibitors, entry CCN(CCO)CCCC(C)Nc1ccnc2cc(Cl)ccc12 (centres unmarked) [HCQ, hydroxychloroquine]
Response given: 1500 to 3500 nM

Challenge: Same question for CCN(CC)CCCC(C)Nc1ccnc2cc(Cl)ccc12 (centres unmarked) [CQ, chloroquine] please.
Response given: 1500 to 3500 nM

###

- System: HIV-1 strains geno-phenotypically resistant to EFV
- assay_name: p24 production susceptibility test, Table 7, MT-2 cells
- Assay type: cell-based
- condition_details: Human immunodeficiency virus 1, MT2, MT-2; Gen. K103N; read-out: E.C.50 HCQ
- Experimental: For the phenotype of the nucleosidic, non-nucleosidic and proteases inhibitors was utilised a method which consider the use of human PBMC and the protocol standardised by the AIDS Clinical Trials Group, after verifying the genotype by sequence analysis. […] The susceptibility of the viral strains to chemotherapics was determined in cell cultures, prepared in 96 wells microplates, using, for the infection, 0.1 MOI. […]
test_readout: EC50 (nM)
Respond with the bare value in nM.

Challenge: Consider the compound CCN(CCO)CCCC(C)Nc1ccnc2cc(Cl)ccc12 (stereo not shown) [HCQ, hydroxychloroquine] and give its measured EC50.
Response given: 2800

###

- Tested on: HIV-1 clinical isolated, characterised by mutations in the RT gene inducing geno-phenotypic resistance to 3TC
- assay_name: p24 production susceptibility test (ACTG protocol), Table 3
- Type: cell-based
- condition_details: Human immunodeficiency virus 1, PBMC, Gen. M184V, read-out: E.C.50 HCQ
test_readout: EC50 (nM)
Give just the numeric value; nM need not be written.

Challenge: Given the compound CCN(CCO)CCCC(C)Nc1ccnc2cc(Cl)ccc12 (stereo not shown) [HCQ, hydroxychloroquine] , what is its reported EC50?
Response given: 3000

###

- Test system: HIV-1 strains geno-phenotypically resistant to NVP
- assay_name: p24 production susceptibility test, Table 6, MT-2 cells
- Format: cell-based
- condition_details: Human immunodeficiency virus 1, MT2, MT-2; Gen. G190E; read-out: E.C.50 HCQ
test_readout: EC50 (µM)
Only the number, expressed in µM, is required.

Challenge: Entry CCN(CCO)CCCC(C)Nc1ccnc2cc(Cl)ccc12 (stereo not shown) [HCQ, hydroxychloroquine] : reported EC50 = ?
Response given: 3.5

###

- Test system: HIV-1 clinical isolated, characterised by mutations in the protease gene inducing geno-phenotypic resistance to SQV
- assay_name: p24 production susceptibility test (ACTG protocol), Table 8
- Format: cell-based
- condition_details: Human immunodeficiency virus 1, PBMC, Gen. V82A L90M, read-out: E.C.50 HCQ
test_readout: EC50

Challenge: Value lookup for EC50; key = CCN(CCO)CCCC(C)Nc1ccnc2cc(Cl)ccc12 (stereo not shown) [HCQ, hydroxychloroquine]
Response given: 1.8 µM

###

- Tested on: HIV-1 clinical isolated, characterised by mutations in the RT gene inducing geno-phenotypic resistance to d4T
- assay_name: p24 production susceptibility test (ACTG protocol), Table 4
- Assay type: cell-based
- condition_details: Human immunodeficiency virus 1, PBMC, Gen. T69SSS T215Y, read-out: E.C.50 CQ
test_readout: pEC50
pEC50 (log units): -log10 of the concentration in mol/L.

Challenge: Entry CCN(CC)CCCC(C)Nc1ccnc2cc(Cl)ccc12 (stereo not shown) [CQ, chloroquine] has what pEC50?
Response given: 5.55

###

- Tested on: HIV-1 strains cultivated in PBMC and isolated from patient naive to the treatment
- assay_name: p24 production susceptibility test (ACTG protocol), Table 11
- Type: cell-based
- condition_details: Human immunodeficiency virus 1, PBMC, PBMC; Virus N°4; read-out: E.C.50 HCQ
test_readout: EC50 (nM)
A number alone suffices; assume nM.

Challenge: State its EC50 on HIV-1 strains cultivated in PBMC and isolated from patient naive to the treatment: CCN(CCO)CCCC(C)Nc1ccnc2cc(Cl)ccc12 (stereo not shown) [HCQ, hydroxychloroquine]
Response given: 2200

###

- Tested on: HIV-1 strains geno-phenotypically resistant to NVP
- assay_name: p24 production susceptibility test, Table 6, MT-2 cells
- Format: cell-based
- condition_details: Human immunodeficiency virus 1, MT2, MT-2; Gen. K103N; read-out: E.C.50 CQ
test_readout: pEC50
Units for pEC50: none; it is -log10 of a concentration expressed in mol/L.

Challenge: So what's the measured pEC50 for this one? CCN(CC)CCCC(C)Nc1ccnc2cc(Cl)ccc12 (stereo not shown) [CQ, chloroquine]
Response given: 5.49

###

- System: HIV-1 clinical isolated, characterised by mutations in the RT gene inducing geno-phenotypic resistance to ABC
- assay_name: p24 production susceptibility test (ACTG protocol), Table 5
- Format: cell-based
- condition_details: Human immunodeficiency virus 1, PBMC, Gen. L74V M184F, read-out: E.C.50 HCQ
test_readout: EC50 (nM)
Numeric only. Scale: nM

Challenge: Requested field: EC50. Item: CCN(CCO)CCCC(C)Nc1ccnc2cc(Cl)ccc12 (stereo not shown) [HCQ, hydroxychloroquine]
Response given: 2200

###

- Test system: HIV-1 strains geno-phenotypically resistant to NVP
- assay_name: p24 production susceptibility test, Table 6, MT-2 cells
- Format: cell-based
- condition_details: Human immunodeficiency virus 1, MT2, MT-2; Gen. Y181C; read-out: E.C.50 CQ
test_readout: pEC50
Kindly note that pEC50 refers to -log10 of the concentration in mol/L and answer with the value alone.

Challenge: Report pEC50 for CCN(CC)CCCC(C)Nc1ccnc2cc(Cl)ccc12 (stereo not shown) please.
Response given: 5.42

###

- Tested on: HIV-1 clinical isolated, characterised by mutations in the protease gene inducing geno-phenotypic resistance to IDV
- assay_name: p24 production susceptibility test (ACTG protocol), Table 9
- Format: cell-based
- condition_details: Human immunodeficiency virus 1, PBMC, PBMC; Gen. K20R E35D M36I I54V V82T; read-out: E.C.50 CQ
test_readout: pEC50
// scale note: pEC50 = -log10(conc_M); give the bare number

Challenge: Please report the recorded pEC50 for CCN(CC)CCCC(C)Nc1ccnc2cc(Cl)ccc12 (stereo not shown) .
Response given: 5.74

###

- Tested on: HIV clinical isolated, characterised by mutations in the RT gene inducing geno-phenotypic resistance to ddI
- assay_name: p24 production susceptibility test (ACTG protocol), Table 2
- Format: cell-based, HIV-1
- condition_details: Human immunodeficiency virus 1, PBMC, Gen M41I T215F, read-out: E.C.50 HCQ
- Method: For the phenotype of the nucleosidic, non-nucleosidic and proteases inhibitors was utilised a method which consider the use of human PBMC and the protocol standardised by the AIDS Clinical Trials Group, after verifying the genotype by sequence analysis. […] The susceptibility of the viral strains to chemotherapics was determined in cell cultures, prepared in 96 wells microplates, using, for the infection, 0.1 MOI. […]
test_readout: pEC50
When answering, recall that pEC50 equals minus log10 of the concentration in mol/L, and write that number alone.

Challenge: Param item = CCN(CCO)CCCC(C)Nc1ccnc2cc(Cl)ccc12 (stereo not shown) [HCQ, hydroxychloroquine] ; retrieve measured pEC50.
Response given: 5.60

###

- Test system: HIV clinical isolated, characterised by mutations in the RT gene inducing geno-phenotypic resistance to ddI
- assay_name: p24 production susceptibility test (ACTG protocol), Table 2
- Type: cell-based, HIV-1
- condition_details: Human immunodeficiency virus 1, PBMC, Gen K70R T215F K219Q, read-out: E.C.50 HCQ
test_readout: EC50 (nM)
Record the value in nM, omitting the unit from your answer.

Challenge: What measured EC50 goes with CCN(CCO)CCCC(C)Nc1ccnc2cc(Cl)ccc12 (stereo not shown) [HCQ, hydroxychloroquine] ?
Response given: 2000

###

- Test system: HIV-1 clinical isolated, characterised by mutations in the RT gene inducing geno-phenotypic resistance to 3TC
- assay_name: p24 production susceptibility test (ACTG protocol), Table 3
- Assay type: cell-based
- condition_details: Human immunodeficiency virus 1, PBMC, Gen. M4IL E44D D67N M184V R211K T215Y, read-out: E.C.50 CQ
test_readout: EC50 (µM)
Give just the number in µM; leave the unit off.

Challenge: EC50 lookup needed for CCN(CC)CCCC(C)Nc1ccnc2cc(Cl)ccc12 (stereo not shown) , thanks.
Response given: 3
